test system: xanthine oxidase (XOD); assay: Affinity ultrafiltration LC-MS/MS with XOD (relative binding affinity); conditions: peaks of WUE-A4, XOD 2 U, 37 °C 1 h, n = 3
Marks after values point to notes of the source that are not given here.
Metric name: UF-RBA XOD (relative binding affinity = Aactive/Ainactivated)

| Compound | Val |
| --- | --- |
| COc1cc(C2c3c(cc(O)c(O)c3OC)C=C(C(=O)NCCc3ccc(O)cc3)C2C(=O)NCCc2ccc(O)cc2)cc(O)c1O (stereo not drawn) | 3.8 ± 0.5 ^a |

Query: UF-RBA XOD (relative binding affinity = Aactive/Ainactivated); subject: `C[C@@H]1O[C@@H](O[C@@H]2[C@@H](O)[C@H](O)[C@@H](CO)O[C@H]2c2cc(-c3cc(=O)c4c(O)cc(O)cc4o3)ccc2O)[C@H](O)[C@H](O)[C@H]1O`
Reply: 1.0 ± 0.2 ^d

Query: Try this compound too: O=C(/C=C/c1ccc(O)c(O)c1)NCCc1ccc(O)cc1 [compound 7, N-trans-caffeoyltyramine]
Reply: 1.1 ± 0.3 ^c,d

Query: Try this compound too: COc1cc(C2c3c(cc(OC)c(O)c3O)C=C(C(=O)NCCc3ccc(O)cc3)C2C(=O)NCCc2ccc(O)cc2)cc(O)c1O (stereo not drawn)
Reply: 1.3 ± 0.2 ^c,d

Query: Try this compound too: `C[C@@H]1O[C@@H](O[C@@H]2[C@@H](O)[C@H](O)[C@@H](CO)O[C@H]2c2cc(-c3cc(=O)c4c(O)cc(O)cc4o3)cc(O)c2O)[C@H](O)[C@H](O)[C@H]1O`
Reply: 1.2 ± 0.6 ^c,d

Query: Try this compound too: O=C1OCC2OC(Oc3ccc(cc3)C(=O)OCC3OC(Oc4ccc1cc4)C(O)C(O)C3O)C(O)C(O)C2O (stereo not drawn)
Reply: 1.2 ± 0.1 ^c,d
